Origin of the recorded values: patent US12227509B2

Readings of Remaining rate for the listed molecules
test: Metabolism stability test (human liver microsomes); format: in vitro ADME; conditions: compound concentration 0.5 μmol/L, 37° C., 30 minutes, NADPH
Numbers only; they are read as %.

molecule	Remaining rate [%]
N#Cc1ccc(-c2nn3c(c2NC(=O)CC(F)(F)F)C(=O)N[C@@]2(CCc4cc(OCC(F)(F)F)ccc42)C3)nc1 [Compound I-14]	103
CS(=O)(=O)CC(=O)Nc1c(-c2ccc(F)cc2)nn2c1C(=O)NC1(CN(c3ccc(C(F)(F)F)cc3)C1)C2 [Compound I-61]	95.6
CS(=O)(=O)CC(=O)Nc1c(-c2ccc(C3CC3)cn2)nn2c1C(=O)N[C@@]1(CCc3cc(F)cc(F)c31)C2 [Compound I-141]	99.4
CS(=O)(=O)CC(=O)Nc1c(-c2ccc(Cl)cn2)nn2c1C(=O)N[C@]1(CCOc3cc(F)cc(F)c31)C2 [Compound I-151]	104
CS(=O)(=O)CC(=O)Nc1c(-c2ccc(F)c(F)c2)nn2c1C(=O)N[C@@]1(CCc3cc(F)cc(F)c31)C2 [Compound I-130]	94.8

Consider the record given below.
[in] Provide only the value of recorded Remaining rate for CS(=O)(=O)CC(=O)Nc1c(-c2ccc(F)cc2)nn2c1C(=O)N[C@]1(CCc3cc(OCC(F)(F)F)ccc31)C2 [Compound I-79]
[out] 77.2

* * *

biological target: recombinant human MGAT2 (Homo sapiens (Human), UniProt Q3SYC2); experiment: Measurement of human MGAT2 inhibitory activity; type: biochemical; conditions: concentration exhibiting 50% enzyme inhibition; recombinant human MGAT2, 2-Oleoylglycerol/Oleoyl-CoA
Sequence (Q3SYC2 whole entry): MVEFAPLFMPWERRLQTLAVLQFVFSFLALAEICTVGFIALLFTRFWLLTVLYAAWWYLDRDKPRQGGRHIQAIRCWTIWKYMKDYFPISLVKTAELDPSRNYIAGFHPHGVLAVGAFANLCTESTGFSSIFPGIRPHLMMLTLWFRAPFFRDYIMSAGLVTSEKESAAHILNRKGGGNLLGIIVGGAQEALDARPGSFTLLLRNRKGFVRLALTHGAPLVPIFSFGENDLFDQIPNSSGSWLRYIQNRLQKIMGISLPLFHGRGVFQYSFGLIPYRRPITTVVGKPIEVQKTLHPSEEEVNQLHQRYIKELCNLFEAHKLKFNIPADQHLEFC
Readings of pIC50 for the listed molecules
Schema: pIC50 number; meaning minus log10 of the concentration expressed in molar units.

Solved cases below.
molecule	result_value
Cc1ccc(-c2nn3c(c2NC(=O)CS(C)(=O)=O)C(=O)N[C@]2(CCc4cc(OCC(F)(F)F)ccc42)C3)nc1 [Compound I-5]	8.55
CS(=O)(=O)CC(=O)Nc1c(CCC2CC2)nn2c1C(=O)N[C@@]1(CCOc3cc(F)cc(F)c31)C2 [Compound I-120]	8.59
CNS(=O)(=O)CC(=O)Nc1c(-c2ccc(C)cn2)nn2c1C(=O)N[C@@]1(CCc3cc(OCC(F)(F)F)ccc31)C2 [Compound I-45]	8.96
CS(=O)(=O)CC(=O)Nc1c(-c2ccc(OC(F)(F)F)cc2)nn2c1C(=O)N[C@@]1(CCc3cc(OCC(F)(F)F)ccc31)C2 [Compound I-27]	8.15

[in] Provide only the value of recorded pIC50 for CCOc1ccc2c(c1)CC[C@@]21Cn2nc(-c3ccc(F)cc3)c(NC(=O)CS(C)(=O)=O)c2C(=O)N1 [Compound I-68]
[out] 8.39

[in] Provide only the value of recorded pIC50 for CS(=O)(=O)CC(=O)Nc1c(-c2ccc(F)cc2)nn2c1C(=O)N[C@@]1(CCOc3cc(F)cc(F)c31)C2 [Compound I-125]
[out] 8.55

[in] Provide only the value of recorded pIC50 for Cc1ccccc1-c1nn2c(c1NC(=O)CS(C)(=O)=O)C(=O)N[C@@]1(CCc3cc(OCC(F)(F)F)ccc31)C2 [Compound I-22]
[out] 7.03

* * *

assay: Metabolism stability test (human liver microsomes); format: in vitro ADME; conditions: compound concentration 0.5 μmol/L, 37° C., 30 minutes, NADPH
property: Remaining rate (%)
Numbers only; they are read as %.

Solved cases below.
compound	Remaining rate, %
Cc1ccc(-c2nn3c(c2NC(=O)CS(C)(=O)=O)C(=O)N[C@@]2(CCc4cc(OCC(F)(F)F)ccc42)C3)nc1 [Compound I-6]	92.4
CS(=O)(=O)CC(=O)Nc1c(CCC(F)(F)F)nn2c1C(=O)N[C@@]1(CCc3cc(OCC(F)(F)F)ccc31)C2 [Compound I-58]	88.4

Consider the record given below.
[in] Provide only the value of recorded Remaining rate for CS(=O)(=O)CC(=O)Nc1c(-c2ccc(Cl)cn2)nn2c1C(=O)N[C@@]1(CCOc3cc(F)cc(F)c31)C2 [Compound I-137]
[out] 101
